What pIC50 was measured for each of the following?
Molecular target: Genome polyprotein (dengue virus type 2)
Sequence (P29990 1346-1475 limits assumed): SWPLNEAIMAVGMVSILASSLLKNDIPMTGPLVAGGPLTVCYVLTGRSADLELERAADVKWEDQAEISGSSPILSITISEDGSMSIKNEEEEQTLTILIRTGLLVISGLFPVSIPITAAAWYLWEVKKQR
Sequence (P29990 1476-2093 limits assumed): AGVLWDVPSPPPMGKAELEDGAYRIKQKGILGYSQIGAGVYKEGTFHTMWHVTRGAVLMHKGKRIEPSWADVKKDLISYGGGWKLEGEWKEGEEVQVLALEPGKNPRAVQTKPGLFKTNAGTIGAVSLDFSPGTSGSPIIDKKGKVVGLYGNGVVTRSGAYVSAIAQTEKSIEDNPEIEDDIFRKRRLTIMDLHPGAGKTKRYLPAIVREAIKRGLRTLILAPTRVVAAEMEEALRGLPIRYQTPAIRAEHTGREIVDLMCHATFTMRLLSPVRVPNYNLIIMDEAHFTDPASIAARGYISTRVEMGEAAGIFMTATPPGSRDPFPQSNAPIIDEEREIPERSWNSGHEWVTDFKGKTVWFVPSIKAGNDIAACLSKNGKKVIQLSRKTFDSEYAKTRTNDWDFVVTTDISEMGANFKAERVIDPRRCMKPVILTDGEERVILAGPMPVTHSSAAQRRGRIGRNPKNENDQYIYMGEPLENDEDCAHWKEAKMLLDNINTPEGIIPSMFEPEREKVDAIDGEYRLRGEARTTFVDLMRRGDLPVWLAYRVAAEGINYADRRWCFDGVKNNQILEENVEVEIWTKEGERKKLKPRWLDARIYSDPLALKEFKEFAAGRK
Type: functional, Thailand/16681/1984
pIC50: −log10 of the molar value.

Q: // query pIC50 value for entry N[C@H]1COC[C@H]1n1cc(C(=O)Nc2cc(-c3cccnc3)ccn2)cn1
Ans: < 4.00

Q: // query pIC50 value for entry O=C(N[C@@H](C(=O)N[C@H]1CCCNC1)c1ccc(OCc2ccccc2)cc1)OCc1ccccc1
Ans: < 4.00

Q: // query pIC50 value for entry CNC(=O)[C@H](Nc1cccc(N)n1)c1cc(Cl)cc(CNC(=O)OC(C)(C)C)c1
Ans: < 4.00

Q: // query pIC50 value for entry Cn1nc2c(c1NC(=O)[C@@H](NC(=O)OCc1ccccc1)c1ccc(OCc3ccccc3)cc1)CNC2
Ans: < 4.00

Q: // query pIC50 value for entry O=C(Nc1cc(Cl)cc(C(=O)Nc2n[nH]c3c2CNC3)c1)OCc1ccccc1
Ans: 4.57

Q: // query pIC50 value for entry NCc1cccc(NC(=O)[C@@H](NC(=O)OCc2ccccc2)c2ccc(-c3cc4cccnc4s3)cc2)c1
Ans: 5.22

Q: // query pIC50 value for entry O=C1Cc2c(cccc2C(=O)Nc2ccc3c(c2)CCNCC3)N1
Ans: 4.68

Q: // query pIC50 value for entry CS(=O)(=O)Nc1cc(Cl)cc(C(=O)Nc2cccc(CN)c2)c1
Ans: < 4.00

Q: // query pIC50 value for entry CC(C)(C#N)CS(=O)(=O)N1CCC([C@H](NC(=O)OCc2ccccc2)C(=O)Nc2cccc(CN)c2)CC1
Ans: < 4.00

Q: // query pIC50 value for entry NCc1cccc(NC(=O)C[C@@H](NC(=O)OCc2ccccc2)c2ccc3c(c2)OCO3)c1
Ans: < 4.00

Q: // query pIC50 value for entry O=C(Nc1ccc2c(c1)CNC2)c1cccc2[nH]ncc12
Ans: < 4.00

Q: // query pIC50 value for entry C[C@@H]1CCC[C@H](C(=O)Nc2cccc(CN)c2)O1
Ans: < 4.00

Q: // query pIC50 value for entry O=C(N[C@@H](C(=O)NCc1ccc(CN2CCCC2)cc1)c1ccc(OCc2ccccc2)cc1)OCc1ccccc1
Ans: < 4.00

Q: // query pIC50 value for entry Cn1cc2c(C(=O)Nc3ccc4c(c3)CNC4)cccc2n1
Ans: < 4.00

Q: // query pIC50 value for entry COCCOc1ccc(Cl)cc1C(=O)Nc1ccc2c(c1)CNC2
Ans: < 4.00

Q: // query pIC50 value for entry CN1CCc2c([nH]c3ccc(C(=O)Nc4ccc5c(c4)CNC5)cc23)C1=O
Ans: < 4.00

Q: // query pIC50 value for entry Cn1cc(Nc2ccc(S(=O)(=O)Nc3ccc(Cl)cc3C(=O)O)cn2)cn1
Ans: < 4.00

Q: // query pIC50 value for entry O=Cc1ccc(N2CCC(C(=O)NCc3cccc(-c4ccccc4)c3)CC2)cc1
Ans: 4.27

Q: // query pIC50 value for entry COCCN(C)C(=O)Cn1ccnc(N2CC[C@@H](CO)C2)c1=O
Ans: < 4.00

Q: // query pIC50 value for entry O=C(O)c1cc2cc(-c3cc(Cl)cc4c3O[C@H](CO)C4)ccc2[nH]1
Ans: < 4.00
